tested on: HCT-8 host cells (Hs18S)
Where a name gives a salt, the structure may show the parent alone.
Please go through the items and note down their Hs18S ΔCT.
One number for each entry.

Reference set (5 entries):
CNc1ccccc1C(=O)O | 0.20
O=C(O)[C@@H]1CCCN1 [PROLINE (L)] | 0.03
COc1ccc(/C=C/C(=O)c2cc(O)ccc2O)cc1 [2',5'-DIHYDROXY-4-METHOXYCHALCONE] | -0.46
CO[C@@]12[C@H](COC(N)=O)C3=C(C(=O)C(C)=C(N)C3=O)N1C[C@@H]1N[C@@H]12 [Mitomycin, reference compound] | 1.34
CN(C)[C@@H]1C(O)=C(C(N)=O)C(=O)[C@@]2(O)C(O)=C3C(=O)c4c(O)cccc4[C@@](C)(O)[C@H]3C[C@@H]12 [TETRACYCLINE HYDROCHLORIDE] | -0.31

Give one value of Hs18S ΔCT per listed molecule.
1. C[N+](C)(C)CCO.[Cl-] [CHOLINE CHLORIDE]
2. Cn1c(=O)c2c(ncn2C)n(C)c1=O [CAFFEINE]
3. CC(=O)OC/C=C(\C)CC/C=C(\C)CC/C=C(\C)CC/C=C(\C)CC/C=C(\C)CC/C=C(\C)CC/C=C(\C)CC/C=C(\C)CCC=C(C)C [SOLANESYL ACETATE]

Output:
1. 0.33
2. 0.27
3. -0.20

----------
tested on: Cryptosporidium parvum; test: qRT-PCR assay of the growth of C. parvum in vitro in HCT-8 host cells (primary and secondary screening, EC50); type: cell-based; conditions: primary screening at 10 uM
Please go through the items and note down their Inhibition (%).

Give one value of Inhibition (%) per listed compound.
1. CC(C(=O)O)[C@H]1CCC2C3CC=C4C[C@@H](O)CC[C@]4(C)C3CC[C@@]21C (stereo partly drawn)
2. O=C(O)CCCCCCCC(O)C(O)CCCCCCO (stereo not drawn)
3. C[C@H](CCC(=O)O)[C@H]1CC[C@H]2[C@@H]3C[C@H](O)[C@@H]4C[C@H](O)CC[C@]4(C)[C@H]3CC[C@]12C [alpha-HYDROXYDEOXYCHOLIC ACID]
4. O=C(/C=C/c1ccc(O)cc1)c1ccccc1O [2',4-DIHYDROXYCHALCONE]
5. OC[C@H]1O[C@H](OCC2O[C@@H](O)[C@H](O)[C@@H](O)[C@@H]2O)[C@H](O)[C@@H](O)[C@H]1O (stereo partly drawn)

Output:
["-20.26%", "36.82%", "-6.93%", "-21.40%", "-16.19%"]

Task: Please give measured Inhibition (%) of the following entry: CC1(C)[C@@H](O[C@H]2O[C@H](C(=O)O)[C@@H](O)[C@H](O)[C@H]2O[C@@H]2O[C@H](C(=O)O)[C@@H](O)[C@H](O)[C@H]2O)CC[C@]2(C)[C@H]3C(=O)C=C4[C@@H]5C[C@@](C)(C(=O)O)CC[C@]5(C)CC[C@@]4(C)[C@]3(C)CC[C@@H]12.N [GLYCYRRHIZIC ACID, AMMONIUM SALT]
Output: 1.41%

----------
assay: in vitro; details: human
Structures can show the parent of a compound that is named as a salt.
Please go through the items and note down their cytotoxicity at 41 h, 10 µM.

Reference set (3 entries):
OCc1c[nH]c2ccccc12 | -31.7%
CC1=C(/C=C/C(C)=C/C=C/C(C)=C/CO)C(C)(C)CCC1 | 6.3%
COc1ccc(-c2c(O)c3c(OC)c4c(cc3oc2=O)OC(C)(C)C=C4)cc1 | 17.8%

Give one value of cytotoxicity at 41 h, 10 µM per listed compound.
1. N[C@@H](Cc1cc(I)c(Oc2cc(I)c(O)c(I)c2)c(I)c1)C(=O)O
2. [H]/N=C(/N)N[C@H]1[C@H](O)[C@@H](O)[C@H](O[C@@H]2O[C@@H](C)[C@](O)(C=O)[C@H]2O[C@@H]2O[C@@H](CO)[C@H](O)[C@@H](O)[C@@H]2NC)[C@@H](N/C(N)=N\[H])[C@@H]1O [STREPTOMYCIN SULFATE]
3. CC1=C(/C=C/C(C)=C/C=C/C(C)=C/C=C/C=C(C)/C=C/C=C(C)/C=C/C(=O)[C@]2(C)C[C@@H](O)CC2(C)C)C(C)(C)C[C@H](O)C1
4. CCCCC[C@H](CC(=O)O)C(=O)O

Output:
1. -2.2%
2. -7.1%
3. -5.5%
4. 3.9%
